Target: human FSH receptor (Homo sapiens)
Sequence (P23945 18-695): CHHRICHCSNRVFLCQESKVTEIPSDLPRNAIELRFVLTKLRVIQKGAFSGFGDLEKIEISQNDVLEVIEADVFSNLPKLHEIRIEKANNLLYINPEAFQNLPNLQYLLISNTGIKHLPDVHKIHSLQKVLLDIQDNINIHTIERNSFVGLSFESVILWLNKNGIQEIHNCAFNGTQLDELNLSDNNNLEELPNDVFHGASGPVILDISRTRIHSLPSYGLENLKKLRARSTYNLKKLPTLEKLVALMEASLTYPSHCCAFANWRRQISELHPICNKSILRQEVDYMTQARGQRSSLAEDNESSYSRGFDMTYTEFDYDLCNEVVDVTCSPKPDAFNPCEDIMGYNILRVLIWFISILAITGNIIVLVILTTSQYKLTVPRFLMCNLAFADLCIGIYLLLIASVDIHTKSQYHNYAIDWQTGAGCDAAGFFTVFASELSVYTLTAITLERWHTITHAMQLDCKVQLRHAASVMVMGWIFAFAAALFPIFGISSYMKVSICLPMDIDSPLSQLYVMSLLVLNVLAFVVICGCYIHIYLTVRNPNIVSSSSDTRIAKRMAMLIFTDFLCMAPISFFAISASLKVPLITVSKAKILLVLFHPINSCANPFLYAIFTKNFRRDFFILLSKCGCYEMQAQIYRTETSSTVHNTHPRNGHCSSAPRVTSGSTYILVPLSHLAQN
Assay: Follicle-Stimulating Hormone Receptor-Dependent Cre-Luciferase Reporter Gene Assay (CHO FSH-R 6CRE-Luc cells)
Settings: dose-response format, in presence of EC50 of purified human FSH
pIC50: −log10 of the molar value.
Assay Metric: pIC50

[a] COc1cc(C(=O)N2Cc3ccc(C(=O)NCc4cccc(C)c4)n3Cc3ccccc32)ccc1-c1ccccc1C [Example 37]
[b] Cc1ccccc1-c1ccc(C(=O)N2Cc3ccc(C(=O)NC(C)c4ccccc4)n3Cc3ccccc32)cc1C (centres unmarked) [Example 13]
[c] Cc1ccccc1-c1ccc(C(=O)N2Cc3ccc(C(=O)NCc4ccc(CN)cc4)n3Cc3ccccc32)cc1C [Example 11]
Put these in order: smallest pIC50 first, largest last. Output spec: labels arranged per the requested ranking. c, b, a
(c: 4.83, b: 5.09, a: 5.39)

====

Assay Metric: melting point

Past entries and their recorded results:
COc1ccc(CCNC(=O)c2ccc3n2Cc2ccccc2N(C(=O)c2ccc(-c4ccccc4C)c(OC)c2)C3)cc1    193 to 195 °C
O=C(Nc1ccc2c(c1)C(O)c1ccccc1-2)c1ccc2n1Cc1ccccc1N(C(=O)COc1ccc(Cl)cc1)C2 (centres unmarked)    176 to 182 °C
COc1cc(C(=O)N2Cc3ccc(C(=O)NCc4ccccc4)n3Cc3ccccc32)ccc1-c1ccccc1C    170 to 174 °C
Cc1ccc(CCNC(=O)c2ccc3n2Cc2ccccc2N(C(=O)c2ccc(-c4ccccc4C)c(C)c2)C3)cc1    161 to 163 °C
COc1cc(C(=O)N2Cc3ccc(C(=O)NC4Cc5ccccc5C4)n3Cc3ccccc32)ccc1-c1ccccc1C    230 to 231 °C

Data request, read-out melting point, for O=C(NCc1ccc(Cl)c(Cl)c1)c1ccc2n1Cc1ccccc1N(C(=O)CSc1ccc(Br)cc1)C2 150 °C

What does the record list as melting point for Cc1ccccc1-c1ccc(C(=O)N2Cc3ccc(C(=O)NCCCCc4ccccc4)n3Cc3ccccc32)cc1C ? 129 to 131 °C

Please look up its melting point: COc1ccccc1-c1ccc(C(=O)N2Cc3ccc(C(=O)NCCc4ccc(O)cc4)n3Cc3ccccc32)cc1C 138 to 147 °C

Which melting point value belongs to O=C(NCc1cccc(C(F)(F)F)c1)c1ccc2n1Cc1ccccc1N(C(=O)CSc1ccc(Br)cc1)C2 ? 102 °C

Returns the measured melting point for the input molecule. Input: Cc1ccccc1-c1ccc(C(=O)N2Cc3ccc(C(=O)NCCc4ccc(O)cc4)n3Cc3ccccc32)cc1C 129 to 131 °C

Reported melting point, molecule COc1cc(C(=O)N2Cc3ccc(C(=O)NCCC(c4ccccc4)c4ccccc4)n3Cc3ccccc32)ccc1-c1ccccc1C : ____ 214 °C

Find the recorded melting point belonging to Cc1ccc(CNC(=O)c2ccc3n2Cc2ccccc2N(C(=O)c2ccc(-c4ccccc4C)c(C)c2)C3)cc1 and report it. 179 to 181 °C

Looking for the measured melting point of O=C1c2cc(Br)ccc2-c2ccc(NC(=O)c3ccc4n3Cc3ccccc3N(C(=O)COc3ccc(Cl)cc3)C4)cc21 , can you help? 277 to 278 °C

Data request, read-out melting point, for COc1cc(C(=O)N2Cc3ccc(C(=O)NCCc4ccc(O)cc4)n3Cc3ccccc32)ccc1-c1ccccc1C 190 to 194 °C

What value of melting point has been recorded for this entry: Cc1ccc(CNC(=O)c2ccc3n2Cc2ccccc2N(C(=O)c2ccc(-c4ccccc4C)c(C)c2)C3)c(C)c1 159 to 161 °C

So what's the measured melting point for this one? COc1cc(C(=O)N2Cc3ccc(C(=O)NCCCCc4ccccc4)n3Cc3ccccc32)ccc1-c1ccccc1C 154 to 159 °C

// returns reported melting point for input COc1cc(C(=O)N2Cc3ccc(C(=O)NCc4ccc(N(C)C)cc4)n3Cc3ccccc32)ccc1-c1ccccc1C 148 to 150 °C
